assay method text: chemical genetic growth profiling, strain panel (AID 1159580);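 note: tested at 20 µM; growth read once vehicle control cultures reached saturation at 30 °C; 1 = growth at the plate median or of vehicle wells; lower values mean less growth of the strain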
condition context: S. cerevisiae deletion strains, growth OD, locus YOR061W, strain CKA2, active compounds read low
Among all 5,500 compounds or so, about 2,000 (36%) were called active. Inconclusive results (about 18%) are left out. Some of the results follow.
quantity kind: normalized growth
# respond with the number and nothing more

Example entries begin here.
1) CC(=O)Oc1cc(C)c2c(c1C(OC(C)=O)OC(C)=O)Oc1c(c(C)c(OC(C)=O)c3c1C(OC(C)=O)OC3=O)OC2=O (stereo not given) : 0.982
2) CC12CCC(CC1)C(C)(C)O2 : 1.01
3) c1cc2c(cc1[C@H]1OC[C@H]3[C@@H]1CO[C@H]3c1ccc3c(c1)OCO3)OCO2 : 0.948
4) C[C@H](COc1ccccc1)N[C@H](C)[C@H](O)c1ccc(O)cc1 : 0.994

query: I have this compound here, COc1cc(C)c2c(c1C=O)Oc1c(c(C)c(O)c3c1C(O)OC3=O)OC2=O (stereo not given) , and I need its recorded normalized growth.
result: 0.952
